The measured values listed here are drawn from patent US20230235054A1.

Target: T1, cynoNectin4-mFc (cyno, UniProt A0A2K5WES1 32-349)
T1 construct: Immobilized on the SPR chip; also called cyanoNectin4; not shown: mFc (mouse Fc)
T1 sequence: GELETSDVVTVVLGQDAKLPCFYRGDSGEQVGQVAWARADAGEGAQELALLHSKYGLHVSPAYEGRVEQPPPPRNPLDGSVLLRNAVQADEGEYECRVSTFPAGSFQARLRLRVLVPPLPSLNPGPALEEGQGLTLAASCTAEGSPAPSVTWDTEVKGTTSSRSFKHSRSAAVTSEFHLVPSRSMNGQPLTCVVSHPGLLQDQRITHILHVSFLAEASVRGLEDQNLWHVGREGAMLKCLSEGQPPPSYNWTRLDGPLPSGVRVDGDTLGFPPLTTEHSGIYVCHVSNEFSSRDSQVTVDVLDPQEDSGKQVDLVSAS
Experiment: SPR, cynoNectin4-mFc immobilized, pH 6.0
Measured Property: koff (s⁻¹)
One number for each entry, in s⁻¹.

Entry BAP-143-06-33-16 (antibody, V domains shown, Used as a conjugate with a linker payload (CAB ADC)) VH: EVQLVQSGAEVKKPGATVKISCKVSGFTFSSYNMNWIRQSPSRGLEWLGYISSSSSTIYYADSVKGRFTISRDNSKNTLYLQMNSLRAEDTAVYYCARAYYYGDDVWGQGTLVTVSS VL: DIQMTQSPSSVSASVGDRVTITCRASQGISGWEAWYQQKPGKAPKFLIYAASTLQSGVPSRFSGSGSGTDFTLTISSLQPEDFATYYCQQANSFPPTFGGGTKVEIK — recorded koff = 0.000273
